meta.source: PubChem BioAssay AID1240

tgt: Bcl-2-like protein 10 (Homo sapiens)
assay procedure: TR3 peptide-Bcl-B binding displacers, biochemical primary FP assay, phenotype converters (AID 1240)
test context: GST-Bcl-B / FITC-TR3 peptide fluorescence polarization; stronger effect = higher value; compound at 3.75 mg/L
About 800 (1.6%) of roughly 50,000 compounds showed an effect of 50% or more. The sample holds strong results, similar compounds and a random draw of the others, so the mix is not that of the screen.
# binarize displacement: threshold 10% inclusive, high side Yes, low side No

Query: Determine whether measured displacement meets or exceeds 10% for COc1ccccc1/C=C/C(=O)c1ccc(F)cc1
Reply: No

Query: Identify whether the reported displacement of the following molecule is 10% or greater: CCOC(=O)C(C)Oc1cc2oc(=O)cc(-c3ccccc3)c2cc1CC (stereo not drawn)
Reply: Yes

Query: Decide: displacement of CC(=O)NCCc1c(C)n(Cc2ccccc2)c2ccccc12 >= 10%?
Reply: Yes

Query: In plain terms: is recorded displacement at least 10% for CCC(=O)Nc1ccc2oc(-c3ccccc3Br)nc2c1 ?
Reply: No

Query: Evaluate Cc1cc(NC(=O)c2cccc(F)c2)ccc1NC(=O)c1ccccc1 : displacement at minimum 10%?
Reply: No

Query: Textbook exercise: given the entry COc1ccc(/C=C2/Sc3ccccc3C2=O)cc1Br , state whether its displacement is greater than or equal to 10%.
Reply: Yes

Query: displacement >= 10% for O=C1NC(=Nc2ccc(Br)cc2)S/C1=C\c1ccc2c(c1)OCO2 ?
Reply: Yes

Query: Check the entry Oc1ccc2ccccc2c1C=Nc1ccc2oc(-c3ccccc3Br)nc2c1 : does displacement equal or exceed 10%?
Reply: Yes

Query: Record COc1ccc(/C=C2/SC(=Nc3ccc(O)cc3)NC2=O)cc1 ; criterion: displacement no lower than 10%. Met?
Reply: No

Query: Can CN(C)c1ccc(/C=C2\SC(=Nc3ccc(O)cc3)NC2=O)cc1 be said to have displacement at or above 10%?
Reply: Yes

Query: displacement >= 10% for CN(C)CCOC(=O)C12CCC3CC(CC(C3)C1)C2 ?
Reply: Yes

Query: displacement >= 10% for COC(=O)c1ccccc1-c1ccc(/C=C2/SC(=S)N(CC(=O)O)C2=O)o1 ?
Reply: No

Query: Please tell me: is the molecule COc1ccc(/C=C2/Sc3ccccc3C2=O)cc1[N+](=O)[O-] at or over 10% in terms of displacement?
Reply: No

Query: Entry CC1=Nc2ccccc2/C1=C\c1c(O)n(-c2ccccc2)c(=O)[nH]c1=O : is its displacement no less than 10%?
Reply: No

Query: Confirm if displacement reported for the molecule Cc1ccc(CN2CCN(/N=C\c3cc(Br)ccc3O)CC2)cc1 is 10% or above.
Reply: No

Query: # check: displacement of O=C1/C(=C\c2ccc(-c3ccc([N+](=O)[O-])cc3Br)o2)Sc2ccccc21 is greater than or equal to 10%
Reply: No

Query: Does displacement meet or surpass 10% for O=C(Cc1ccc([N+](=O)[O-])cc1)NCc1ccccn1 ?
Reply: Yes

Query: Quick check: does CC1CN(C(=O)c2ccccc2C(=O)c2ncc[nH]2)CC(C)O1 (stereo not drawn) have displacement greater than or equal to 10%?
Reply: No

Query: Hi team, for COC(=O)c1ccc(-c2ccc(/C=C3/SC(=S)N(c4ccccc4)C3=O)o2)cc1 , is the recorded displacement at or above 10%?
Reply: Yes

Query: Threshold query (displacement >= 10%) on NC(=O)c1cccc(N=Cc2c(O)ccc3ccccc23)c1
Reply: No

Query: Please indicate if the recorded displacement for CC(C)(C)C1(O)CC(c2ccccc2)=NO1 (stereo not drawn) meets or exceeds 10%.
Reply: Yes

Query: Can O=C1NC(=Nc2ccc(F)cc2)S/C1=C/c1ccc(Br)cc1 be said to have displacement at or above 10%?
Reply: No

Query: Please check the record CC1=Nc2ccccc2/C1=C\c1sc(=S)n(-c2ccccc2)c1O and state if its displacement is at or above 10%.
Reply: Yes
